- target: human mAChR M1 (Homo sapiens)
- Construct: host or cells: CHO-K1 cells (ATCC), stably transfected using Lipofectamine2000
- assay explanation: mAChR M1 cell-based functional assay (calcium mobilization), PAM activity: increase in the EC20 acetylcholine response
- setup conditions: CHO-K1 cells expressing hM1; potentiation of EC20 acetylcholine response
Catalogue of log10 EC50 values
Hey, these are logged values: log10 of EC50, µM being the unit before logging.

# annotated cases, reported log10 EC50 shown
- smiles code: "Cc1cn2c(=O)n(Cc3ccc(-c4ccn(C)n4)cc3F)cc(C(=O)N[C@H]3CCCC[C@@H]3O)c2n1"
  target: "human mAChR M1 (Homo sapiens)"
  measure: "log10 EC50"
  meas value: 0.74
- smiles code: "O=C(N[C@H]1CCCC[C@@H]1O)c1cn(Cc2ccc(-n3cccn3)cc2)c(=O)n2ccnc12"
  target: "human mAChR M1 (Homo sapiens)"
  measure: "log10 EC50"
  meas value: -1.00
- smiles code: "Cn1nccc1-c1ccc(Cn2cc(C(=O)N[C@H]3CCCC[C@@H]3O)c3ncccc3c2=O)c(F)c1"
  target: "human mAChR M1 (Homo sapiens)"
  measure: "log10 EC50"
  meas value: 0.05
- smiles code: "Cn1cc2c(-c3cc(F)c(Cn4cc(C(=O)N[C@H]5CCOC[C@@H]5O)c5ncn(C)c5c4=O)c(F)c3)cccc2n1"
  target: "human mAChR M1 (Homo sapiens)"
  measure: "log10 EC50"
  meas value: -0.51
- smiles code: "Cn1cc(-c2ccc(Cn3cc(C(=O)N[C@H]4CCCC[C@@H]4O)c4nccn4c3=O)cn2)cn1"
  target: "human mAChR M1 (Homo sapiens)"
  measure: "log10 EC50"
  meas value: -0.68
- smiles code: "Cn1cc2c(-c3cc(F)c(Cn4cc(C(=O)NCC(C)(C)O)c5nccnc5c4=O)c(F)c3)cccc2n1"
  target: "human mAChR M1 (Homo sapiens)"
  measure: "log10 EC50"
  meas value: 0.61
- smiles code: "Cn1ccc(-c2ccc(Cn3cc(C(=O)N[C@H]4CCCC[C@@H]4O)c4ncccc4c3=O)c(F)c2)n1"
  target: "human mAChR M1 (Homo sapiens)"
  measure: "log10 EC50"
  meas value: -0.14
- smiles code: "Cn1cc(-c2ccc(Cn3cc(C(=O)N[C@H]4CCOC[C@@H]4O)c4nccn4c3=O)c(F)c2)cn1"
  target: "human mAChR M1 (Homo sapiens)"
  measure: "log10 EC50"
  meas value: -1.34

Exercise: Given Cn1nccc1-c1ccc(Cn2cc(C(=O)N[C@H]3CCOC[C@@H]3O)c3ncccc3c2=O)c(F)c1 , state its recorded log10 EC50.
Key: 0.64

Exercise: Given Cn1nccc1-c1cc(F)c(Cn2cc(C(=O)N[C@H]3CCOC[C@@H]3O)c3nccn3c2=O)c(F)c1 , state its recorded log10 EC50.
Key: 0.10

###

- target: human mAChR M1 (Homo sapiens, UniProt P11229)
- Construct: host or cells: CHO-K1 cells (ATCC), stably transfected using Lipofectamine2000
- Sequence (P11229 1-460): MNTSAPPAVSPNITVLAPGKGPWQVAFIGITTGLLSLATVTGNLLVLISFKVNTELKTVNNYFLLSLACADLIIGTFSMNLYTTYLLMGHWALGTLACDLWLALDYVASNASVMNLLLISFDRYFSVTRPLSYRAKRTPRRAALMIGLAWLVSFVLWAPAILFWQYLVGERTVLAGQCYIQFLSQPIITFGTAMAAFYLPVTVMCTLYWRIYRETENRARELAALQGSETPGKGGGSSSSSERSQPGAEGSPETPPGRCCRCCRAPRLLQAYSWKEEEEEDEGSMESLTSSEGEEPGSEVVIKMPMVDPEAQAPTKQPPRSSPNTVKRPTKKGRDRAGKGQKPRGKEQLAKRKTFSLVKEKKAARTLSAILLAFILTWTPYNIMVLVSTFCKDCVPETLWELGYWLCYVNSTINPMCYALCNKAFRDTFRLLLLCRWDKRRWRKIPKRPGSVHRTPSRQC
- assay explanation: mAChR M1 cell-based functional assay (calcium mobilization), PAM activity: increase in the EC20 acetylcholine response
- setup conditions: CHO-K1 cells expressing hM1; potentiation of EC20 acetylcholine response
measure: pEC50
Remember, pEC50 is on a log scale: it is -log10 of the molar concentration.

- smiles code: "Cn1cc(-c2ccc(Cn3cc(C(=O)N[C@H]4CCCCC[C@@H]4O)c4ncccc4c3=O)cn2)cn1"
  measure: "pEC50"
  meas value: 5.78
- smiles code: "Cn1cc(-c2ccc(Cn3cc(C(=O)N[C@H]4CCCCC[C@@H]4O)c4ncccc4c3=O)c(F)c2)cn1"
  measure: "pEC50"
  meas value: 6.46

Now, please, on to the next compound.
Exercise: Lab note: need pEC50 with human mAChR M1 (Homo sapiens, UniProt P11229) for entry Cn1cc2c(-c3cc(F)c(Cn4cc(C(=O)NC5CC6(COC6)C5)c5nccnc5c4=O)c(F)c3)cccc2n1 , please look it up.
Key: 5.51

###

- target: human mAChR M1 (Homo sapiens)
- Construct: host or cells: CHO-K1 cells (ATCC), stably transfected using Lipofectamine2000
- assay explanation: mAChR M1 cell-based functional assay (calcium mobilization), agonist activity upon compound addition
- setup conditions: CHO-K1 cells expressing hM1; relative to the maximum for acetylcholine
measure: Emax (%)
Kindly answer with a numeric value in %, unit omitted.

# annotated cases, reported Emax shown
- compound: "O=C(N[C@H]1CCC[C@@H]1O)c1cn(Cc2ccc(-n3cccn3)cc2)c(=O)n2ccnc12 [Compound B14]"
  readout unit: "%"
  meas value: 28
- compound: "O=C(N[C@H]1CCOC[C@@H]1O)c1cn(Cc2ccc(-n3cccn3)cc2)c(=O)c2cccnc12 [Compound A12]"
  readout unit: "%"
  meas value: 28
- compound: "O=C(N[C@H]1CCCC[C@@H]1O)c1cn(Cc2ccc(-n3cccn3)cc2)c(=O)c2cccnc12 [Compound A13]"
  readout unit: "%"
  meas value: 21

Exercise: Given Cn1cc(-c2ccc(Cn3cc(C(=O)N[C@H]4CCCC[C@@H]4O)c4occc4c3=O)c(F)c2)cn1 [Compound D13] , state its recorded Emax.
Key: 11

Exercise: Given Cc1cc(-c2ccc(Cn3cc(C(=O)N[C@H]4CCOC[C@@H]4O)c4ncccc4c3=O)c(F)c2)ccn1 [Compound A26] , state its recorded Emax.
Key: 10

Exercise: Given Cn1ccc(-c2ccc(Cn3cc(C(=O)N[C@H]4CCCC[C@@H]4O)c4ncn(C)c4c3=O)c(F)c2)n1 [Compound C1] , state its recorded Emax.
Key: 8

###

Catalogue of EC50 values
- target: human mAChR M1 (Homo sapiens, UniProt P11229)
- Construct: host or cells: CHO-K1 cells (ATCC), stably transfected using Lipofectamine2000
- assay explanation: mAChR M1 cell-based functional assay (calcium mobilization), agonist activity upon compound addition
- setup conditions: CHO-K1 cells expressing hM1; compound alone, before acetylcholine addition

# annotated cases, reported EC50 shown
- compound: "O=C(N[C@H]1CCCC[C@@H]1O)c1cn(Cc2ccc(-n3cccn3)cc2)c(=O)c2cccnc12"
  EC50: "8.95 µM"
- compound: "Cn1ccc(-c2ccc(Cn3cc(C(=O)N[C@H]4CCC[C@@H]4O)c4ncn(C)c4c3=O)c(F)c2)n1"
  EC50: "> 10 µM"
- compound: "Cn1cc2c(-c3cc(F)c(Cn4cc(C(=O)NC5CCOCC5)c5nccnc5c4=O)c(F)c3)cccc2n1"
  EC50: "> 10 µM"
- compound: "Cn1cc(-c2ccc(Cn3cc(C(=O)N[C@H]4CCOC[C@@H]4O)c4nccn4c3=O)c(F)c2)cn1"
  EC50: "0.15 µM"

Exercise: Given Cn1cc(-c2ccc(Cn3cc(C(=O)N[C@H]4CCCCC[C@@H]4O)c4occc4c3=O)c(F)c2)cn1 , state its recorded EC50.
Key: > 10 µM

Exercise: Given Cn1cc2c(-c3cc(F)c(Cn4cc(C(=O)N[C@H]5CCCCC[C@@H]5O)c5nccn5c4=O)c(F)c3)cccc2n1 , state its recorded EC50.
Key: 5.24 µM

Exercise: Given Cc1cc(C)cc(-c2cc(F)c(Cn3cc(C(=O)N[C@H]4CCOC[C@@H]4O)c4ncccc4c3=O)c(F)c2)c1 , state its recorded EC50.
Key: > 10 µM

Exercise: Given Cc1cncc(-c2cc(F)c(Cn3cc(C(=O)N[C@H]4CCC[C@@H]4O)c4ncccc4c3=O)c(F)c2)c1 , state its recorded EC50.
Key: > 10 µM

Exercise: Given Cn1cc(-c2ccc(Cn3cc(C(=O)N[C@H]4CCCC[C@@H]4O)c4occc4c3=O)c(F)c2)cn1 , state its recorded EC50.
Key: > 10 µM

Exercise: Given Cc1cn2c(=O)n(Cc3ccc(-n4cccn4)cc3)cc(C(=O)N[C@H]3CCOC[C@@H]3O)c2n1 , state its recorded EC50.
Key: > 10 µM

Exercise: Given Cn1ccc(-c2ccc(Cn3cc(C(=O)NC4CCOC(C)(C)C4)c4occc4c3=O)c(F)c2)n1 (centres unmarked) , state its recorded EC50.
Key: > 10 µM

Exercise: Given Cn1cc2c(-c3cc(F)c(Cn4cc(C(=O)NC5(CO)CCOC5)c5nccnc5c4=O)c(F)c3)cccc2n1 (centres unmarked) , state its recorded EC50.
Key: > 10 µM

Exercise: Given Cc1ccc(-c2cc(F)c(Cn3cc(C(=O)N[C@H]4CCOC[C@@H]4O)c4ncccc4c3=O)c(F)c2)cn1 , state its recorded EC50.
Key: 2.88 µM

Exercise: Given Cn1cc2c(-c3cc(F)c(Cn4cc(C(=O)N[C@H]5CCC[C@@H]5O)c5nccn5c4=O)c(F)c3)cccc2n1 , state its recorded EC50.
Key: > 10 µM
